B1: LINE1-mini (parent)
chain: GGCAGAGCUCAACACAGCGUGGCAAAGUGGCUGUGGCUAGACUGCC

Variants of: B1
Test: self-cleavage, relative activity (ratio to wild type); higher = more cleavage; in vitro, sequencing; the parent is a self-cleaving ribozyme
# binning rule on self-cleavage: I = under 0.07, II = from 0.07 up to 0.4, III = 0.4 and over

These recorded examples may help you get a feel for the data.
Mutation name | Class name
A26G G30C | III
G1U G44A | II
C46A | III
U34A U38G | I
C3U G30C | III

Exercise: // return the class label for C15G G21A
Solution: II

Exercise: The entry to classify is U20A G22C ; which class holds it?
Solution: II

Exercise: Class? Entry: U9C A41U
Solution: I

Exercise: Band for G29U C45A ?
Solution: III

Exercise: Which category does the recorded self-cleavage put G36A U43C in?
Solution: II

Exercise: Which self-cleavage category applies to C18G G29A here?
Solution: III

Exercise: Form field 'band' for A25C A26C
Solution: III

Exercise: read the entry G17A G29C and state which class it falls under.
Solution: III

Exercise: Class (by measured self-cleavage) for G5C A25U
Solution: II

Exercise: Category of G21A U43G , please.
Solution: II

Exercise: The entry to classify is A24G G35C ; which class holds it?
Solution: II

Exercise: Band for U20G A41C ?
Solution: I
